Biological target: Cytochrome P450 3A5 (Homo sapiens, UniProt P20815)
Sequence (P20815 whole entry): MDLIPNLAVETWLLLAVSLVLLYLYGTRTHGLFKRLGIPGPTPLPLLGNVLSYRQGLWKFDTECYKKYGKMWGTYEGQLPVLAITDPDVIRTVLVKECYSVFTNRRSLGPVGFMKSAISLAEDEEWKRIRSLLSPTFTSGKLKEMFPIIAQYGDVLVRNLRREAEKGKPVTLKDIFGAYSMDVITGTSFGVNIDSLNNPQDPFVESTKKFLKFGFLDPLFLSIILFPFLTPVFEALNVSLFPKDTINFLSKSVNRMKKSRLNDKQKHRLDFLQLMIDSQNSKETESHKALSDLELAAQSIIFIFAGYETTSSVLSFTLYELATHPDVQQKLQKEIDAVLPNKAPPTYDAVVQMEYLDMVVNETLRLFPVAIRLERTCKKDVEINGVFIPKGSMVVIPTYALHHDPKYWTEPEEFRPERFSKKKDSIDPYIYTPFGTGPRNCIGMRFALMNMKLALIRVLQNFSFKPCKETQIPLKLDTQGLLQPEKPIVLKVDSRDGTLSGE
Test: Inhibition of recombinant human CYP3A5 using testosterone as substrate
Assay type: ADME
property.measured: IC50

Name the recorded IC50 of the compound listed here: CS(=O)(=O)n1cc2c(n1)CN([C@@H]1C[C@H](N)[C@@H](c3cc(F)ccc3F)O[C@@H]1C(F)(F)F)C2
> 100 µM

====

Biological target: Cytochrome P450 2A6 (Homo sapiens, UniProt P11509)
Sequence (P11509 whole entry): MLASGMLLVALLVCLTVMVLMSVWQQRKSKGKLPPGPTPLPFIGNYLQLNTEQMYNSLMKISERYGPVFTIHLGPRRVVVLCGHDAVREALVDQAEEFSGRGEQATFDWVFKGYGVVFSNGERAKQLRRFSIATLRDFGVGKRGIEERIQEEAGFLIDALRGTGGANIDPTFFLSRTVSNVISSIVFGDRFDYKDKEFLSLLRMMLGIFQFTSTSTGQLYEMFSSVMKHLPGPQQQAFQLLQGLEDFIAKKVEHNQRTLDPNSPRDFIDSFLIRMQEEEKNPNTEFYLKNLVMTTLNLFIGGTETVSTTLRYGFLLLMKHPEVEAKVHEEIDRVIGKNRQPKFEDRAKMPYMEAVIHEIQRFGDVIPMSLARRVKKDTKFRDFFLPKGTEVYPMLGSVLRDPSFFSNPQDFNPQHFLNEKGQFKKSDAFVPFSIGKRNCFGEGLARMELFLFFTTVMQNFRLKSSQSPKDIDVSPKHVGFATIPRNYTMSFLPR
Experiment: Inhibition of recombinant human CYP2A6
Type: ADME
property.measured: IC50

Give IC50 for CS(=O)(=O)n1cc2c(n1)CN([C@@H]1C[C@H](N)[C@@H](c3cc(F)ccc3F)O[C@@H]1C(F)(F)F)C2
> 100 µM
